Attribution: the RNAGym collection of RNA variant scans (doi:10.1093/molbev/msab373)

B1: Azoarcus group I ribozyme (parent)
chain: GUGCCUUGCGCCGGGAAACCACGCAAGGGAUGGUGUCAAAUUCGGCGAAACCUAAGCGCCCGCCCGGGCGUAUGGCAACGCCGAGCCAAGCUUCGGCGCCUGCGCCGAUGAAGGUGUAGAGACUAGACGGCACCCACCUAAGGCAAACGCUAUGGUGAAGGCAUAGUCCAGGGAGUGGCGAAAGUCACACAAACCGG

Variants of: B1
Test: reverse-splicing fitness (ratio to wild type); higher = more active; in vitro selection; Mg2+ level not given
Measured quantity: reverse-splicing fitness

input: Dear colleague, please send me the reported reverse-splicing fitness for C82U A111U A145G C169A when you can.
output: 0.00999

input: Dear colleague, please send me the reported reverse-splicing fitness for C82A A111G A120U A145C C150U C169U when you can.
output: 0.00308

input: Dear colleague, please send me the reported reverse-splicing fitness for C82G A111U A120U A145U C169U U176G when you can.
output: 0.00177

input: Dear colleague, please send me the reported reverse-splicing fitness for C82A A111C A120C A145C C150U C169U U176A when you can.
output: 0.0135

input: Dear colleague, please send me the reported reverse-splicing fitness for C82A A111U A120U A145G C169U U176G when you can.
output: 0.00182

input: Dear colleague, please send me the reported reverse-splicing fitness for C82G A111G A120C C150A U176G when you can.
output: 0.0141

input: Dear colleague, please send me the reported reverse-splicing fitness for C82U A111C A120G A145C U176A when you can.
output: 0.0119

input: Dear colleague, please send me the reported reverse-splicing fitness for C82U A111C A120C A145C C169G U176C when you can.
output: 0.015

input: Dear colleague, please send me the reported reverse-splicing fitness for C82U A111C A120U U176A when you can.
output: 0.00719

input: Dear colleague, please send me the reported reverse-splicing fitness for C82G A120C A145U C150U C169A U176G when you can.
output: 0.00538

input: Dear colleague, please send me the reported reverse-splicing fitness for C82G A111G A120U A145C C169G when you can.
output: 0.00347

input: Dear colleague, please send me the reported reverse-splicing fitness for C82G A120U C150U C169G U176A when you can.
output: 0.00481

input: Dear colleague, please send me the reported reverse-splicing fitness for A111G A120U A145U C150A U176G when you can.
output: 0.018

input: Dear colleague, please send me the reported reverse-splicing fitness for A111G A120C C150A C169G when you can.
output: 0.00862

input: Dear colleague, please send me the reported reverse-splicing fitness for C82G A111C A120G A145C C169G U176G when you can.
output: 0.00429

input: Dear colleague, please send me the reported reverse-splicing fitness for C82A A111U A120U C150G C169G U176A when you can.
output: 0.00475

input: Dear colleague, please send me the reported reverse-splicing fitness for C82U A111C A120U A145U C150U U176A when you can.
output: 0.00562

input: Dear colleague, please send me the reported reverse-splicing fitness for C82G A111C A120U A145U U176C when you can.
output: 0.0197

input: Dear colleague, please send me the reported reverse-splicing fitness for C82U A145G C150G C169A U176A when you can.
output: 0.0146

input: Dear colleague, please send me the reported reverse-splicing fitness for C82U A111U A120U C150G C169G when you can.
output: 0.00584

input: Dear colleague, please send me the reported reverse-splicing fitness for C82U A111U A120C A145C C150U U176A when you can.
output: 0.00801

input: Dear colleague, please send me the reported reverse-splicing fitness for C82A A111U A120G A145U C150U when you can.
output: 0.0134

input: Dear colleague, please send me the reported reverse-splicing fitness for C82G A111G A145U C150A C169A U176C when you can.
output: 0.0131

input: Dear colleague, please send me the reported reverse-splicing fitness for C82U A111U A120U A145G C150U C169G U176G when you can.
output: 0.00243

input: Dear colleague, please send me the reported reverse-splicing fitness for C82A A111U A145G C150G C169A U176A when you can.
output: 0.0138

input: Dear colleague, please send me the reported reverse-splicing fitness for C82A A111C A120G U176C when you can.
output: 0.0255

input: Dear colleague, please send me the reported reverse-splicing fitness for A145U C150A U176C when you can.
output: 0.363

input: Dear colleague, please send me the reported reverse-splicing fitness for C82G A111C A145G C169G U176G when you can.
output: 0.00727

input: Dear colleague, please send me the reported reverse-splicing fitness for C82A A111U A120C C150A C169U when you can.
output: 0.0129

input: Dear colleague, please send me the reported reverse-splicing fitness for C82A A111C A120U A145C C169U U176A when you can.
output: 0.00272

input: Dear colleague, please send me the reported reverse-splicing fitness for A111G A120G A145U C150U C169A U176C when you can.
output: 0.0426

input: Dear colleague, please send me the reported reverse-splicing fitness for C82U A111C A120G C150U C169U U176G when you can.
output: 0.00513

input: Dear colleague, please send me the reported reverse-splicing fitness for C82U A111C A120U A145G when you can.
output: 0.0248

input: Dear colleague, please send me the reported reverse-splicing fitness for C82A A111U A145G C150U C169G U176G when you can.
output: 0.00676

input: Dear colleague, please send me the reported reverse-splicing fitness for C82U A111U C150A C169A U176C when you can.
output: 0.0168

input: Dear colleague, please send me the reported reverse-splicing fitness for C82A A111C A120U A145C C150U C169U U176G when you can.
output: 0.00284

input: Dear colleague, please send me the reported reverse-splicing fitness for C82A A111C A120U C150A U176C when you can.
output: 0.00738

input: Dear colleague, please send me the reported reverse-splicing fitness for A120U A145G C169G U176G when you can.
output: 0.00281

input: Dear colleague, please send me the reported reverse-splicing fitness for C82G A111G A120G A145U C150G U176A when you can.
output: 0.00801

input: Dear colleague, please send me the reported reverse-splicing fitness for C82U A111U A120U A145G C150A C169A U176G when you can.
output: 0.00245

input: Dear colleague, please send me the reported reverse-splicing fitness for A111C A120C C150A C169G U176A when you can.
output: 0.0198

input: Dear colleague, please send me the reported reverse-splicing fitness for C82U A111G A120C C150U C169A U176C when you can.
output: 0.011

input: Dear colleague, please send me the reported reverse-splicing fitness for C82A A111G A120U A145C C150G C169U U176G when you can.
output: 0.00231

input: Dear colleague, please send me the reported reverse-splicing fitness for C82A A120U A145C C150A C169A when you can.
output: 0.00256

input: Dear colleague, please send me the reported reverse-splicing fitness for C82G A111U A120C A145U C150U C169G U176G when you can.
output: 0.00568

input: Dear colleague, please send me the reported reverse-splicing fitness for C82U A111U A145C C150G when you can.
output: 0.0299
